- experimental-system: 3T3 cells expressing the human CCK1 receptor (Homo sapiens, UniProt P32238)
- Sequence (P32238 whole entry): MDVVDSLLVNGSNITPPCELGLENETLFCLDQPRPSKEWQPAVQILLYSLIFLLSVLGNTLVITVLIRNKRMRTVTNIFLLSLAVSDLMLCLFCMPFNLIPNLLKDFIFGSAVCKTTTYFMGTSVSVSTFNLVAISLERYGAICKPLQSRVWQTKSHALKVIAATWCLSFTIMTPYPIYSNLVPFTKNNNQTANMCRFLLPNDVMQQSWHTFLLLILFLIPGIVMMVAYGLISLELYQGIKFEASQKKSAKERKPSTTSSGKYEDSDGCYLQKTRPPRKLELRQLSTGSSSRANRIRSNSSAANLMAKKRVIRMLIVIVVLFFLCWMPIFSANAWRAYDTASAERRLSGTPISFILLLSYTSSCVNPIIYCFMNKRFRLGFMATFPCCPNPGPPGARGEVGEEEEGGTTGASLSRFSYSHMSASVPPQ
- assay-remarks: mobilization of intracellular calcium ([Ca++]i), Fura-2
- measurement-parameters: read-out: EC50 [Ca++]i release
experimental-endpoint: EC50

Lab note: need EC50 for COc1cc(-c2nc(NC(=O)c3cc4c(C)c(C)c(OC)cc4n3CCC(=O)[O-])nn2CCC2CCCCC2)c(OC)cc1C.[K+] [Example 1, Potassium Salt] on 3T3 cells expressing the human CCK1 receptor (Homo sapiens, UniProt P32238), anyone have it?
~1 nM
